Molecular target: Recombinant wild type LRRK2 protein (Homo sapiens (Human))
Sequence (Q5S007 whole entry): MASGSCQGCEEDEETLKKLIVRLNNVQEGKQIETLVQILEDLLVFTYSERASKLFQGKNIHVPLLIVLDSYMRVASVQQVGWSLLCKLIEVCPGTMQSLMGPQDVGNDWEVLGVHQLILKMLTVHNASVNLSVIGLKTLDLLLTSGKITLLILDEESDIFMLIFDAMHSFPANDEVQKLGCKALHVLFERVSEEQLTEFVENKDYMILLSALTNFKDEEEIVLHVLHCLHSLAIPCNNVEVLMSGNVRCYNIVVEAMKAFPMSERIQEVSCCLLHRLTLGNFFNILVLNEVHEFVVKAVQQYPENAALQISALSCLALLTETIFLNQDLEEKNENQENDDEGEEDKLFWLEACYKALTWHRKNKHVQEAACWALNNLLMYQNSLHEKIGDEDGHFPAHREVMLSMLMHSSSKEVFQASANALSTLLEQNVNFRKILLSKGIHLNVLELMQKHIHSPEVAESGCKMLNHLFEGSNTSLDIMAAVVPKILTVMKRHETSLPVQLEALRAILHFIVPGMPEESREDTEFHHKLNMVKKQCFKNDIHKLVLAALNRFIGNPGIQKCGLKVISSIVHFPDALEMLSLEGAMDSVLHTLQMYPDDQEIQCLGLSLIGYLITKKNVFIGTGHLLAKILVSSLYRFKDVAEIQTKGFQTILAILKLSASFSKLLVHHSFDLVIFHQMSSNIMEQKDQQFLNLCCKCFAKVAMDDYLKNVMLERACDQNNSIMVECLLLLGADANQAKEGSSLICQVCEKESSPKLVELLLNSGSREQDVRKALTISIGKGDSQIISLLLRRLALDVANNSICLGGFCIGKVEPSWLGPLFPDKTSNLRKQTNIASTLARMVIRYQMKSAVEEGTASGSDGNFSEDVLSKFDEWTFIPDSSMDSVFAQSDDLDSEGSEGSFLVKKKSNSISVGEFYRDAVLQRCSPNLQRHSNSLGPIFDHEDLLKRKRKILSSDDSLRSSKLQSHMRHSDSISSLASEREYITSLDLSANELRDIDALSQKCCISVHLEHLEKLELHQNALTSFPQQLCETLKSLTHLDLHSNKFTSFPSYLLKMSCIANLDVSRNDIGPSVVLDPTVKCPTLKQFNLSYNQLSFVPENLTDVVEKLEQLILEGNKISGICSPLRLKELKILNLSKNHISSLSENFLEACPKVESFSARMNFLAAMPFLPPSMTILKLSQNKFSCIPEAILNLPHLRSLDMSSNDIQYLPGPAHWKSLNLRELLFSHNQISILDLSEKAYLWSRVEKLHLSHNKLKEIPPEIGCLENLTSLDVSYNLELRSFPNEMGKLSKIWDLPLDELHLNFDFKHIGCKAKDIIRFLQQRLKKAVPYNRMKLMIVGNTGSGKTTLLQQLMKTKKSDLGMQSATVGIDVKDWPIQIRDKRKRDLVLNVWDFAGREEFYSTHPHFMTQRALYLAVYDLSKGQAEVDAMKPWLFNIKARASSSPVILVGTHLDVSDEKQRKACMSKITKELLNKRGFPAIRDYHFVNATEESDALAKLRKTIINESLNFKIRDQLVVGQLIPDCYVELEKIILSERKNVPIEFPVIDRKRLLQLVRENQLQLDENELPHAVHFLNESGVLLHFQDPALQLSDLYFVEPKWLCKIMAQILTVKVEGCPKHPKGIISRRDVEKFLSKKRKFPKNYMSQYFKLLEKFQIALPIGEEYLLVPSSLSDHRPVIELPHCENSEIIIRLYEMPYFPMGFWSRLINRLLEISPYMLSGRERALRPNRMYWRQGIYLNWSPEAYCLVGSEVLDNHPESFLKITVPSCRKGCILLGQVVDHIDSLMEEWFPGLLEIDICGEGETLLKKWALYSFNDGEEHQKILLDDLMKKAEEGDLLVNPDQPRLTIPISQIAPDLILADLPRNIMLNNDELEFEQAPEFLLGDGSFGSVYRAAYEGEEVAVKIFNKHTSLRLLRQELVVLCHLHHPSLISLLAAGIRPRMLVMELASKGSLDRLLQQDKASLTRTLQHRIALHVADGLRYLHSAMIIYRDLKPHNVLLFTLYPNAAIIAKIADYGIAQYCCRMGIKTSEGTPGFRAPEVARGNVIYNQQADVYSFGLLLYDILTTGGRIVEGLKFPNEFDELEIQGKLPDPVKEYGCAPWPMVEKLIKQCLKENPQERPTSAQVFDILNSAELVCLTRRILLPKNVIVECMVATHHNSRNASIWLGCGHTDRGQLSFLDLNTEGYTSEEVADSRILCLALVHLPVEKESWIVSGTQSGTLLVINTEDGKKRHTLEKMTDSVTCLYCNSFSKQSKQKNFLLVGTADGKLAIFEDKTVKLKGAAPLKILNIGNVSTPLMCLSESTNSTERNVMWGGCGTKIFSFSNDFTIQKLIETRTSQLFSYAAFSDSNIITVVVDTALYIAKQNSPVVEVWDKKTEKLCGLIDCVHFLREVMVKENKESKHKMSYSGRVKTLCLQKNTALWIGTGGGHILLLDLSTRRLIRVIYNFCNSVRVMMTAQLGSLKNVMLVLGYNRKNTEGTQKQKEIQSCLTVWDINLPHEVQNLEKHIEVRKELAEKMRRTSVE
Test: LRRK2 kinase activity, LanthaScreen TR-FRET assay (wild type)
Conditions: LRRKtide 400 nM, 25 μM ATP, 60 min; read-out: LRRK2 WT IC50
Protocol: LRRK2 kinase activity was measured using a LanthaScreen™ Kinase Activity Assay from ThermoFisher Scientific. Recombinant wild type or G2019S-LRRK2 protein (Life Technologies, PR8604B or PV4881, respectively), was incubated with a fluorescein-labeled peptide substrate called LRRKtide that is based upon ezrin/radixin/moesin (ERM) (Life Technologies, PV4901) in the presence of ATP and serially diluted compound. […]
pIC50: −log10 of the molar value.
assay.endpoint: pIC50

In [3]: df
Out[3]:
                            compound_smiles  assay_endpoint  observed_result
0  Cc1cc(C#N)cnc1C(=O)Nc1ccc2[nH]nc(-n3ccoc3=O)c2c1           pIC50     5.00 to 6.00
1  Cc1c(C#N)cnc(C(=O)Nc2ccc3[nH]nc(-c4cnn(C5CCN(C)CC5)c4)c3c2)c1C           pIC50           > 7.00
2  Cc1cc(C#N)cnc1C(=O)Nc1ccc2[nH]nc(-c3ccnnc3)c2c1           pIC50     6.00 to 7.00
3  Cc1cc(C#N)c(Cl)nc1C(=O)Nc1ccc2[nH]nc(C)c2c1           pIC50     6.00 to 7.00
4  Cc1nc(C(=O)Nc2ccc3[nH]nc(C4CC4)c3c2)c(C)c(C)c1C#N           pIC50     6.00 to 7.00
5  Cc1cc(C#N)cnc1C(=O)Nc1ccc2[nH]nc(-c3ccc(N4CCOCC4)cc3)c2c1           pIC50     6.00 to 7.00
6  Cc1c(C(=O)Nc2ccc3[nH]nc(-c4ccccc4)c3c2)cc(C#N)n1C           pIC50     6.00 to 7.00
7  CCc1c(C(=O)Nc2ccc3[nH]nc(-c4cnco4)c3c2)ccnc1C#N           pIC50           > 7.00

These data points were gathered from patent US11427558B1.
